Reference source: paper PMC10397247

- Target under test: T1, 4H40-bA
- T1 chain: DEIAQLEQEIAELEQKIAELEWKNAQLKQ
- Experimental details: two-hybrid library CCNG1;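 further: natural log of median RNA to DNA barcode read ratio; higher means stronger binding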
# label = criterion met if interaction score >= -0.4 else criterion not met

Example entries begin here.
Please check the record DKIAQLKQKNAELKQKNAELEWEIAQLEQ [4H3057-bA] and state if its interaction score is at or above -0.4.
criterion not met

Please check the record DEIAQLEQEIAELEQKIAELEWKNAQLKQ [4H40-bA] and state if its interaction score is at or above -0.4.
criterion met

Please check the record DKIAQLKQENAELEQENAELKWKIAQLEQ [4H2717-bA] and state if its interaction score is at or above -0.4.
criterion not met

---
Please check the record DEIAQLEQENAELEQKNAELEWKIAQLKQ [4H182-bA] and state if its interaction score is at or above -0.4.
criterion not met

Please check the record DKIAQLEQENAELEQKIAELKWKNAQLEQ [4H2223-bA] and state if its interaction score is at or above -0.4.
criterion not met
